system_under_test: Neutrophil elastase (Homo sapiens)
Sequence (P08246 whole entry): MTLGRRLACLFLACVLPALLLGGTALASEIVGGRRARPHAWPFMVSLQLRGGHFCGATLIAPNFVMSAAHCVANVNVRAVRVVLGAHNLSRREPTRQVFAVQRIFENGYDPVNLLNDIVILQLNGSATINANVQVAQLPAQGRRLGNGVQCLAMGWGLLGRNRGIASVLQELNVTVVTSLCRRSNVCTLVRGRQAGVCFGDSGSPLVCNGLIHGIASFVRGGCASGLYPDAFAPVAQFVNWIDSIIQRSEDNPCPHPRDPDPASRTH
protocol_notes: Inhibition of human neutrophil elastase using MeOSuc-AAPV-MCA as substrate at pH 7.2 and 298 K measured every 60 secs for 600 secs
pIC50: −log10 of the molar value. Bridge positions count the residues as written; N and C are the ends. Square brackets hold non-standard residues; d marks the D form. Peptide text beside a SMILES is read from it. Phe(4-Cl) = N[C@@H](Cc1ccc(Cl)cc1)C(=O)O
assay_endpoint: pIC50

Lab note: measured pIC50 of N=C(N)NCCC[C@@H]1NC(=O)CNC(=O)[C@H](CC(=O)O)NC(=O)[C@@H]2CCCN2C(=O)[C@H](Cc2ccccc2)NC(=O)[C@@H]2CSSC[C@H](NC1=O)C(=O)N[C@@H](CCC(N)=O)C(=O)N[C@@H](Cc1ccc(Cl)cc1)C(=O)N[C@@H](CO)C(=O)N[C@@H](CCC(=O)O)C(=O)N1CCC[C@H]1C(=O)N1CCC[C@H]1C(=O)N[C@@H](CCC(=O)O)C(=O)N2 (cyclo(CFPDGRCQ[Phe(4-Cl)]SEPPE); disulfide 1-7) was < 5.00

----------
system_under_test: Chymotrypsin (Homo sapiens, UniProt Q99895+P17538+P40313+Q6GPI1)
protocol_notes: Inhibition of human chymotrypsin using Suc-AAPF-MCA as substrate at pH 8 and 298 K measured every 60 secs for 600 secs
Format: protein assay
Bridge positions count the residues as written; N and C are the ends. Square brackets hold non-standard residues; d marks the D form. Peptide text beside a SMILES is read from it. Phe(4-NO2) = N[C@@H](Cc1ccc([N+](=O)[O-])cc1)C(=O)O; Bip = N[C@@H](Cc1ccc(-c2ccccc2)cc1)C(=O)O; Phe(4-Me) = Cc1ccc(C[C@H](N)C(=O)O)cc1
Kindly state Ki for each of the entries shown.

Use the examples below as a reference point.
molecule | Ki
CC[C@H](C)[C@@H]1NC(=O)[C@@H]2CCCN2C(=O)[C@@H]2CCCN2C(=O)[C@H](CCC(=O)O)NC(=O)[C@H](CO)NC(=O)[C@H](Cc2ccc(O)cc2)NC(=O)[C@H]([C@@H](C)O)NC(=O)[C@@H]2CSSC[C@H](NC1=O)C(=O)N[C@@H](Cc1ccccc1)C(=O)N1CCC[C@H]1C(=O)N[C@@H](CC(=O)O)C(=O)NCC(=O)N[C@@H](CCCNC(=N)N)C(=O)N2 (cyclo(CFPDGRCTYSEPPI); disulfide 1-7) | 0.88 nM
CC[C@H](C)[C@@H]1NC(=O)[C@@H]2CCCN2C(=O)[C@@H]2CCCN2C(=O)[C@H](Cc2ccc(-c3ccccc3)cc2)NC(=O)[C@H](CO)NC(=O)[C@H](Cc2ccc(O)cc2)NC(=O)[C@H](C)NC(=O)[C@@H]2CSSC[C@H](NC1=O)C(=O)N[C@@H](Cc1ccccc1)C(=O)N1CCC[C@H]1C(=O)N[C@@H](CC(=O)O)C(=O)NCC(=O)N[C@@H](Cc1ccccc1)C(=O)N2 (cyclo(AYS[Bip]PPICFPDGFC); disulfide 8-14) | 1.5 nM
Cc1ccc(C[C@@H]2NC(=O)[C@H](CCC(N)=O)NC(=O)[C@@H]3CSSC[C@H](NC(=O)[C@H](CCC(=O)O)NC(=O)[C@@H]4CCCN4C(=O)[C@@H]4CCCN4C(=O)[C@H](CCC(=O)O)NC(=O)[C@H](CO)NC2=O)C(=O)N[C@@H](Cc2ccccc2)C(=O)N2CCC[C@H]2C(=O)N[C@@H](CC(=O)O)C(=O)NCC(=O)N[C@@H](CCCNC(=N)N)C(=O)N3)cc1 (cyclo(CFPDGRCQ[Phe(4-Me)]SEPPE); disulfide 1-7) | 1500 nM

The observed Ki for N=C(N)NCCC[C@@H]1NC(=O)CNC(=O)[C@H](CC(=O)O)NC(=O)[C@@H]2CCCN2C(=O)[C@H](Cc2ccccc2)NC(=O)[C@@H]2CSSC[C@H](NC1=O)C(=O)N[C@@H](CCC(N)=O)C(=O)N[C@@H](Cc1ccc([N+](=O)[O-])cc1)C(=O)N[C@@H](CO)C(=O)N[C@@H](CCC(=O)O)C(=O)N1CCC[C@H]1C(=O)N1CCC[C@H]1C(=O)N[C@@H](CCC(=O)O)C(=O)N2 (cyclo(CFPDGRCQ[Phe(4-NO2)]SEPPE); disulfide 1-7) when tested with Chymotrypsin (Homo sapiens, UniProt Q99895+P17538+P40313+Q6GPI1) stands at 920 nM

----------
system_under_test: UniProt:P23946
Sequence (P23946 whole entry): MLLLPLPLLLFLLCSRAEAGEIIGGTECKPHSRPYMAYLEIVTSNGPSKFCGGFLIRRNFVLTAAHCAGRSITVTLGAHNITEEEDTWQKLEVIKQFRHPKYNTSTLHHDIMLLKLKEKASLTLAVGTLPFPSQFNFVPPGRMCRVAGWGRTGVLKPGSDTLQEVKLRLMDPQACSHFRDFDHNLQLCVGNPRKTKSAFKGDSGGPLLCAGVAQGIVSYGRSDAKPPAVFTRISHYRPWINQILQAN
protocol_notes: Inhibition of recombinant human chymase expressed in Pichia pastoris X-33 cells using NleTDY-pNA as substrate assessed as cleavage of pNA at pH 7.2 and 298 K by spectrophotometry analysis
Bridge positions count the residues as written; N and C are the ends. Square brackets hold non-standard residues; d marks the D form. Peptide text beside a SMILES is read from it. Phe(4-NO2) = N[C@@H](Cc1ccc([N+](=O)[O-])cc1)C(=O)O; Phe(4-Cl) = N[C@@H](Cc1ccc(Cl)cc1)C(=O)O; Phe(4-I) = N[C@@H](Cc1ccc(I)cc1)C(=O)O; Phe(4-Me) = Cc1ccc(C[C@H](N)C(=O)O)cc1
assay_endpoint: pKi
Give bare numbers, as −log10 of the molar value.

compound | pKi
N=C(N)NCCC[C@@H]1NC(=O)CNC(=O)[C@H](CC(=O)O)NC(=O)[C@@H]2CCCN2C(=O)[C@H](Cc2ccccc2)NC(=O)[C@@H]2CSSC[C@H](NC1=O)C(=O)N[C@@H](CCC(N)=O)C(=O)N[C@@H](Cc1ccc(I)cc1)C(=O)N[C@@H](CO)C(=O)N[C@@H](CCC(=O)O)C(=O)N1CCC[C@H]1C(=O)N1CCC[C@H]1C(=O)N[C@@H](CCC(=O)O)C(=O)N2 (cyclo(CFPDGRCQ[Phe(4-I)]SEPPE); disulfide 1-7) | 7.72
N=C(N)NCCC[C@@H]1NC(=O)CNC(=O)[C@H](CC(=O)O)NC(=O)[C@@H]2CCCN2C(=O)[C@H](Cc2ccccc2)NC(=O)[C@@H]2CSSC[C@H](NC1=O)C(=O)N[C@@H](CCC(N)=O)C(=O)N[C@@H](Cc1ccc([N+](=O)[O-])cc1)C(=O)N[C@@H](CO)C(=O)N[C@@H](CCC(=O)O)C(=O)N1CCC[C@H]1C(=O)N1CCC[C@H]1C(=O)N[C@@H](CCC(=O)O)C(=O)N2 (cyclo(CFPDGRCQ[Phe(4-NO2)]SEPPE); disulfide 1-7) | 7.27
N=C(N)NCCC[C@@H]1NC(=O)CNC(=O)[C@H](CC(=O)O)NC(=O)[C@@H]2CCCN2C(=O)[C@H](Cc2ccccc2)NC(=O)[C@@H]2CSSC[C@H](NC1=O)C(=O)N[C@@H](CCC(N)=O)C(=O)N[C@@H](Cc1ccc(O)cc1)C(=O)N[C@@H](CO)C(=O)N[C@@H](CCC(=O)O)C(=O)N1CCC[C@H]1C(=O)N1CCC[C@H]1C(=O)N[C@@H](CCC(=O)O)C(=O)N2 (cyclo(CFPDGRCQYSEPPE); disulfide 1-7) | 8.18
Cc1ccc(C[C@@H]2NC(=O)[C@H](CCC(N)=O)NC(=O)[C@@H]3CSSC[C@H](NC(=O)[C@H](CCC(=O)O)NC(=O)[C@@H]4CCCN4C(=O)[C@@H]4CCCN4C(=O)[C@H](CCC(=O)O)NC(=O)[C@H](CO)NC2=O)C(=O)N[C@@H](Cc2ccccc2)C(=O)N2CCC[C@H]2C(=O)N[C@@H](CC(=O)O)C(=O)NCC(=O)N[C@@H](CCCNC(=N)N)C(=O)N3)cc1 (cyclo(CFPDGRCQ[Phe(4-Me)]SEPPE); disulfide 1-7) | 8.66

The observed pKi for N=C(N)NCCC[C@@H]1NC(=O)CNC(=O)[C@H](CC(=O)O)NC(=O)[C@@H]2CCCN2C(=O)[C@H](Cc2ccccc2)NC(=O)[C@@H]2CSSC[C@H](NC1=O)C(=O)N[C@@H](CCC(N)=O)C(=O)N[C@@H](Cc1ccc(Cl)cc1)C(=O)N[C@@H](CO)C(=O)N[C@@H](CCC(=O)O)C(=O)N1CCC[C@H]1C(=O)N1CCC[C@H]1C(=O)N[C@@H](CCC(=O)O)C(=O)N2 (cyclo(CFPDGRCQ[Phe(4-Cl)]SEPPE); disulfide 1-7) when tested with UniProt:P23946 stands at 8.74

----------
protocol_notes: Inhibition of human cationic trypsin using Boc-VPR-MCA as substrate at pH 8 and 298 K measured every 60 secs for 600 secs
Bridge positions count the residues as written; N and C are the ends. Square brackets hold non-standard residues; d marks the D form. Peptide text beside a SMILES is read from it. Phe(4-NO2) = N[C@@H](Cc1ccc([N+](=O)[O-])cc1)C(=O)O
assay_endpoint: IC50

Lab note: measured IC50 of N=C(N)NCCC[C@@H]1NC(=O)CNC(=O)[C@H](CC(=O)O)NC(=O)[C@@H]2CCCN2C(=O)[C@H](Cc2ccccc2)NC(=O)[C@@H]2CSSC[C@H](NC1=O)C(=O)N[C@@H](CCC(N)=O)C(=O)N[C@@H](Cc1ccc([N+](=O)[O-])cc1)C(=O)N[C@@H](CO)C(=O)N[C@@H](CCC(=O)O)C(=O)N1CCC[C@H]1C(=O)N1CCC[C@H]1C(=O)N[C@@H](CCC(=O)O)C(=O)N2 (cyclo(CFPDGRCQ[Phe(4-NO2)]SEPPE); disulfide 1-7) was > 10 µM
